Each recorded value in this set is attributed to patent US6953812B2.

In this section we review reported pIC50 values for a set of compounds.
molecular target: human glucagon receptor (Homo sapiens, UniProt P47871); construct: expressed in transfected cells; host or cells: BHK (baby hamster kidney) cells, membrane preparation; experiment: Glucagon Binding Assay (II); conditions: membranes of BHK cells transfected with human glucagon receptor, 125I-glucagon, SPA; read-out: Glu Bd Assay (II) IC50
Sequence (P47871 26-477): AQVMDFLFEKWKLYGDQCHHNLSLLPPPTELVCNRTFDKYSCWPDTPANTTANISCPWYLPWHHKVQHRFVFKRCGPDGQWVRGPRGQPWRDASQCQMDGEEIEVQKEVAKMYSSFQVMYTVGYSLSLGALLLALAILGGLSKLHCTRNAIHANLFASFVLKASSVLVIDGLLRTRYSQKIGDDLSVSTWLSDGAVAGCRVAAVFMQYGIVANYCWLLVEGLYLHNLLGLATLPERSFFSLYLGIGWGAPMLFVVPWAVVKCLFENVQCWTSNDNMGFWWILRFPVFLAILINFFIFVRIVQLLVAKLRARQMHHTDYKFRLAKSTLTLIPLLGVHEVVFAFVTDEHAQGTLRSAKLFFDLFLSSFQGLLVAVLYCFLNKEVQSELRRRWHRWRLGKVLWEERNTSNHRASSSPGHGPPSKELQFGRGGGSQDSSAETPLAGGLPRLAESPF
To interpret pIC50, take it as minus log10 of a concentration measured in moles per litre.

Reported pIC50 of O=C(NC[C@@H](O)C(=O)O)c1ccc(CN(C(=O)Nc2ccc(Cl)c(Cl)c2)c2ccc(C3CCCCC3)cc2)cc1 : 7.39

Reported pIC50 of O=C(NC[C@@H](O)C(=O)O)c1ccc(CN(C(=O)Nc2ccc(F)c([N+](=O)[O-])c2)c2ccc(C3CCCCC3)cc2)cc1 : 6.92

Reported pIC50 of O=C(NC[C@@H](O)C(=O)O)c1ccc(CN(C(=O)Cc2cccc(C(F)(F)F)c2)c2ccc(C3CCCCC3)cc2)cc1 : 6.28
